TGI for assorted compounds
Tested on: ACHN renal
test name: NCI tumour cell line growth inhibition, 48 h
Please reply with the bare figure in µM and do not write the unit itself.

- chemical structure: "Cc1cc(S(=O)(=O)/N=C/N(C)C)c(SC(=O)c2ccc(Cl)cc2)cc1Cl"
  unit abbrev: "µM"
  TGI: 47.1

// below: TGI requested for another compound
Entry `CC1=CC(=O)C(C(C)C)=CC1=Nc1cc(Br)c(O)c(Br)c1` — recorded TGI = 30.1

====

TGI for assorted compounds
System: SR leukemia
test name: NCI tumour cell line growth inhibition, 48 h

Entry N#CC1CCCCOCCOCCOCCOCCOCCCCCC1=O (stereo not drawn) — recorded TGI = > 100 µM

Entry `COC(=O)C(=CNC(N)=O)C(=O)OC` — recorded TGI = > 100 µM

Entry O=C(O)C1CC2(C1)CC(C(=O)O)C2 (stereo not drawn) — recorded TGI = > 100 µM

====

Tested on: NCI-H460 lung
test name: NCI tumour cell line growth inhibition, 48 h
TGI for assorted compounds

- compound: "Cc1ccc(NC(=O)C2C(=O)N(c3ccc(C)c(C)c3)C(=O)/C2=N\\NC(N)=O)cc1C (centres undefined)"
  TGI: "> 100 µM"
- compound: "Cc1ccc(-n2cc(-c3ccc(Cl)cc3)c3c(N/N=C4\\SCC(=O)N4C)ncnc32)cc1"
  TGI: "43.2 µM"
- compound: "Cc1cccc(C(C)C)c1N1C(=O)C(=O)C(c2nc3ccccc3o2)C(=O)C1=O"
  TGI: "> 100 µM"
- compound: "CCCCCc1cc2cc3c(c(O)c2c(=O)[nH]1)C1(CCC3)C(O)=c2c(=O)c3c(=O)cc(OC)c(=O)c=3c(=O)c2=C1O (centres undefined)"
  TGI: "3.12 µM"
- compound: "O=[N+]([O-])c1ccc(Cl)c(C2CC(c3cccc4ccccc34)=Nc3ccccc3S2)c1 (centres undefined)"
  TGI: "> 100 µM"
- compound: "O=[N+]([O-])c1ccccc1S(=O)(=O)c1ccccc1"
  TGI: "> 100 µM"

Entry `O=C(/C=C/c1ccco1)c1ccc(NCc2nc3ccccc3[nH]2)cc1` — recorded TGI = > 100 µM

Entry `Cc1cc(-c2ccccc2)nc(Nc2nc3ccccc3o2)n1` — recorded TGI = > 100 µM

Entry `NC(=O)c1c([N+](=O)[O-])cc(C(F)(F)F)cc1[N+](=O)[O-]` — recorded TGI = > 100 µM

====

Test system: SK-MEL-28 melanoma
test name: NCI tumour cell line growth inhibition, 48 h
reported metric: TGI

- compound: "COc1ccc(C(c2ccc(OCCN(C)C)cc2)c2cc3ccccc3c3ccccc23)cc1 (configuration not stated)"
  test result: "3.11 µM"
- compound: "Cc1ccc(NC(=O)C2C(=O)N(c3ccc(C)c(C)c3)C(=O)/C2=N\\NC(N)=O)cc1C (configuration not stated)"
  test result: "> 100 µM"
- compound: "C[N+](C)(C)CC1CCC/C1=N/O (configuration not stated)"
  test result: "> 100 µM"

Entry `Brc1ccc2[nH]cc(-c3nc(-c4c[nH]c5ncccc45)cs3)c2c1` — recorded TGI = 16.1 µM

Entry `Cc1c(-c2ccccc2)nn2cc(-c3ccccc3)nnc12` — recorded TGI = > 100 µM

Entry `O=c1[nH]c2ccccc2c(O)c1/C=N/C(=S)NCc1ccccc1` — recorded TGI = > 100 µM

Entry `CN(C)c1ccc(C=C2C(=O)N(c3ccccc3)N(c3ccccc3)C2=O)cc1` — recorded TGI = > 100 µM

Entry COC1=C(C)C(=O)c2c(c(CCCl)c3n2CCC3O)C1=O (configuration not stated) — recorded TGI = 3.85 µM

Entry NC1=NC(c2ccc(Cl)cc2)N(c2ccc(S(N)(=O)=O)cc2)C(N)=N1 (configuration not stated) — recorded TGI = > 100 µM

====

log10(TGI) for assorted compounds
Test system: U251 CNS
test name: NCI tumour cell line growth inhibition, 48 h
Units before log transform: µM; reported quantity: TGI; transform: log10.

Would you please look over these solved cases?
- compound: "O=[N+]([O-])c1ccc(Oc2nc(Nc3ccc(O[C@H]4CO[C@H]5[C@@H]4OC[C@@H]5O)c(Cl)c3)ncc2F)c(Cl)c1"
  log10(TGI): 0.81
- compound: "Cc1ccc(C(NC(=O)c2ccccc2)c2ccc3cccnc3c2O)cc1 (stereo unspecified)"
  log10(TGI): 1.26
- compound: "C=C1C(=O)O[C@H]2[C@H]1CC/C(COC(=O)CCSCCC(=O)OC/C1=C/CC[C@@]3(C)O[C@H]3[C@H]3OC(=O)C(=C)[C@@H]3CC1)=C\\CC[C@@]1(C)O[C@@H]21"
  log10(TGI): 0.54
- compound: "CCOC(=O)c1sc2nc(SC)nc3c2c1NCN3c1ccc(F)c(F)c1"
  log10(TGI): 1.49
- compound: "COc1cccc(-c2ccc3c(c2)C2CCN(Cc4ccccc4)C3C2)c1 (stereo unspecified)"
  log10(TGI): 1.34

`Brc1ccc2c3c1[C@H]1O[C@H]1c1cccc(c1-3)[C@@H]1O[C@H]21` on U251 CNS gives log10(TGI) = 1.57

`O=C1Nc2ccccc2Cn2c1cc1oc(-c3ccccc3)cc12` on U251 CNS gives log10(TGI) = 1.56

====

Test system: HCT-15 colon
test name: NCI tumour cell line growth inhibition, 48 h
reported metric: TGI (µM)
Please reply with the bare figure in µM and do not write the unit itself.

- compound: "COc1ccc(/C=C2\\CCS(=O)(=O)c3ccccc3C2=O)cc1OC"
  subject of test: "HCT-15 colon"
  unit abbrev: "µM"
  TGI: 50.4
- compound: "COc1cccc2c1-c1c(c3ccc([N+](=O)[O-])cc3c(=O)n1CCCN)C2=O"
  subject of test: "HCT-15 colon"
  unit abbrev: "µM"
  TGI: 3.37
- compound: "CC(C)N1CCN(Cc2ccc3c(NNC(=O)c4ccccc4)nc4cc(F)ccc4n23)CC1"
  subject of test: "HCT-15 colon"
  unit abbrev: "µM"
  TGI: 3.91
- compound: "N#Cc1c(Br)n(C2OC(CO)C(O)C2O)c2ncnc(N)c12 (stereo not given)"
  subject of test: "HCT-15 colon"
  unit abbrev: "µM"
  TGI: 46.3
- compound: "Brc1ccc2c3c1[C@H]1O[C@H]1c1cccc(c1-3)[C@@H]1O[C@H]21"
  subject of test: "HCT-15 colon"
  unit abbrev: "µM"
  TGI: 49.1
- compound: "COc1cccc(-c2ccc3c(c2)C2CCN(Cc4ccccc4)C3C2)c1 (stereo not given)"
  subject of test: "HCT-15 colon"
  unit abbrev: "µM"
  TGI: 19.7
- compound: "S=C(Nc1ccc(N=Nc2ccccc2)cc1)SCc1ccccc1"
  subject of test: "HCT-15 colon"
  unit abbrev: "µM"
  TGI: 28.3
- compound: "CCCCCCNC(=O)Oc1ccc(/C(=C(/C)Cc2ccc(OC)cc2)c2ccc(OCCCN(C)C)cc2)cc1"
  subject of test: "HCT-15 colon"
  unit abbrev: "µM"
  TGI: 21.9

Entry `C=C1C(=O)O[C@H]2[C@H]1CC/C(COC(=O)CCSCCC(=O)OC/C1=C/CC[C@@]3(C)O[C@H]3[C@H]3OC(=O)C(=C)[C@@H]3CC1)=C\CC[C@@]1(C)O[C@@H]21` — recorded TGI = 2.46

====

System: LOX IMVI melanoma
test name: NCI tumour cell line growth inhibition, 48 h
reported metric: TGI

Would you please look over these solved cases?
- compound: "O=C(NC1CCCCC1)c1cc2ccccc2cc1O"
  reported metric: "TGI"
  test result: "> 100 µM"
- compound: "CCCCCCNC(=O)CCC(NC(=O)c1ccc(N(C)Cc2cnc3nc(N)nc(N)c3n2)cc1)C(=O)NCCCCCC (centres undefined)"
  reported metric: "TGI"
  test result: "> 100 µM"
- compound: "O=c1[nH]c(=O)n(C2CC(O)C(CO)O2)cc1NN=NCCCc1ccccc1 (centres undefined)"
  reported metric: "TGI"
  test result: "> 100 µM"
- compound: "Cc1ccc(-n2cc(-c3ccc(Cl)cc3)c3c(N/N=C4\\SCC(=O)N4C)ncnc32)cc1"
  reported metric: "TGI"
  test result: "> 100 µM"
- compound: "Cc1cn(C2CC(N)C(C(=O)NCC(=O)O)O2)c(=O)[nH]c1=O (centres undefined)"
  reported metric: "TGI"
  test result: "> 100 µM"

O=[N+]([O-])c1ccc(Cl)c(C2CC(c3cccc4ccccc34)=Nc3ccccc3S2)c1 (centres undefined) on LOX IMVI melanoma gives TGI = 59.2 µM

COC12CCCN1c1ccn(Cc3ccccc3)c(=O)c1C2=O (centres undefined) on LOX IMVI melanoma gives TGI = > 100 µM

`O=[N+]([O-])c1ccccc1S(=O)(=O)c1ccccc1` on LOX IMVI melanoma gives TGI = > 100 µM

`C=C1C(=O)O[C@H]2[C@H]1CC/C(COC(=O)CCSCCC(=O)OC/C1=C/CC[C@@]3(C)O[C@H]3[C@H]3OC(=O)C(=C)[C@@H]3CC1)=C\CC[C@@]1(C)O[C@@H]21` on LOX IMVI melanoma gives TGI = 1.6 µM
